# Test system: hN + hpA co-culture (H1 iNGN2 human neurons + human primary astrocytes)
# experiment: presynaptic density (SYNAPSIN1 puncta per MAP2 neurite area), Z-score vs DMSO controls; higher = more presynaptic puncta (synapse-promoting)
# conditions: 3 µM; 72 h
Entries are grouped by presynaptic density (Z-score) into these classes: zone 1 = under -1, zone 2 = from -1 up to 0.2, zone 3 = 0.2 and over

Use the examples below as a reference point.
Lab note: which band did `Cn1c(N2CCCCS2(=O)=O)nc(C(=O)NCc2ccc(F)cc2)c(O)c1=O` land in?
zone 1

Lab note: which band did `C[C@]1(O)C[C@@H](c2nc(-c3ccc4ccc(-c5ccccc5)nc4c3)c3c(N)nccn32)C1` land in?
zone 3

Lab note: which band did NC(=O)C1CCCc2c1[nH]c1ccc(Cl)cc21 (stereo not given) [6-Chloro-2,3,4,9-tetrahydro-1H-carbazole-1-carboxamide] land in?
zone 2

Others:
Lab note: which band did `CC(C)(C)c1nc(-c2cccc(NS(=O)(=O)c3c(F)cccc3F)c2F)c(-c2ccnc(N)n2)s1` land in?
zone 3

Lab note: which band did `O=S(=O)(NCCNCC=Cc1ccc(Br)cc1)c1cccc2cnccc12` land in?
zone 2

Lab note: which band did `S=C=Nc1cccc(NC(=S)NCCCCNC(=S)Nc2cccc(N=C=S)c2)c1` land in?
zone 3

Lab note: which band did CCOC(=O)C1=C(COCCN)NC(C)=C(C(=O)OC)C1c1ccccc1Cl (stereo not given) land in?
zone 1

---

# Test system: hN + hpA co-culture (H1 iNGN2 human neurons + human primary astrocytes)
# experiment: presynaptic density (SYNAPSIN1 puncta per MAP2 neurite area), Z-score vs DMSO controls; higher = more presynaptic puncta (synapse-promoting)
# conditions: 3 µM; 72 h
observation-type: presynaptic density (Z-score)

Output presynaptic density (Z-score) of `Cc1cc(NC(=O)Nc2ccc(N(C)C)cc2)c2cc(F)cc(F)c2n1`
0.301

Output presynaptic density (Z-score) of Oc1ccc2ccccc2c1SSc1c(O)ccc2ccccc12 [1-1-Dithiodi-2-naphthtol]
-0.787

Output presynaptic density (Z-score) of COC(=O)C1=C(C#N)NC(C)=C(C(=O)OC(C)C)C1c1cccc([N+](=O)[O-])c1 (stereo not given) [Nilvadipine]
-0.965

Output presynaptic density (Z-score) of `CC(=O)c1cc([N+](=O)[O-])c(Sc2ccc(F)cc2F)s1`
0.25

Continue with the next compound.
Output presynaptic density (Z-score) of `NC(=O)c1cccc(-c2cc(Nc3ccc(OC(F)(F)F)cc3)ncn2)c1`
-1.31

---

# Test system: hN + hpA co-culture (H1 iNGN2 human neurons + human primary astrocytes)
# experiment: presynaptic density (SYNAPSIN1 puncta per MAP2 neurite area), Z-score vs DMSO controls; higher = more presynaptic puncta (synapse-promoting)
# conditions: 3 µM; 72 h
# presynaptic density (Z-score) annotations
The reply should be a number, written without any unit.

Some solved cases for reference:
Output presynaptic density (Z-score) of `Cc1cc(Nc2cc(CN3CCOCC3)c3nc(C)c(Cc4ccc(Cl)cc4F)n3n2)n[nH]1`
-1.8

Output presynaptic density (Z-score) of `CC(C)(Cc1ccc2ccccc2c1)NC[C@@H](O)COc1cccc(Cl)c1C#N`
-2.26

Output presynaptic density (Z-score) of `NC(=O)c1ccc(I)c([N+](=O)[O-])c1`
-1.09

Output presynaptic density (Z-score) of `CC[C@@H]1C(=O)N(C)c2cnc(Nc3ccc(C(=O)NC4CCN(C)CC4)cc3OC)nc2N1C1CCCC1`
-2.32

Others:
Output presynaptic density (Z-score) of Cc1ccc(S(=O)(=O)n2c(N)nc3ccccc32)cc1 [ML130 (Nodinitib-1)]
0.396

Output presynaptic density (Z-score) of Nc1ncnc2c1c(-c1cccc(OCc3ccccc3)c1)cn2C1CC(CN2CCCC2)C1 (centres undefined)
-1.9

Output presynaptic density (Z-score) of Nc1ccc(C(=O)O)c(O)c1 [Sodium 4-Aminosalicylate]
0.294

Output presynaptic density (Z-score) of CN1C(=O)C(Cc2c[nH]c3ccccc23)NC1=S (centres undefined) [5-(1H-Indol-3-ylmethyl)-3-methyl-2-thioxo-4-imidazolidinone]
-0.458

Output presynaptic density (Z-score) of `O=C(NNc1nc2cc(F)ccc2n2cccc12)c1cnccn1`
-1.29

Output presynaptic density (Z-score) of `C=CC(=O)Nc1cccc(Oc2nc(Nc3ccc(N4CCN(C)CC4)cc3OC)ncc2Cl)c1`
-0.275

Output presynaptic density (Z-score) of `COc1cc(Br)c(Nc2nc(-c3c(C)nc4ncccn34)cs2)c(Br)c1`
-2

---

# presynaptic density (Z-score) annotations
# System: hN + hpA co-culture (H1 iNGN2 human neurons + human primary astrocytes)
# experiment: presynaptic density (SYNAPSIN1 puncta per MAP2 neurite area), Z-score vs DMSO controls; higher = more presynaptic puncta (synapse-promoting)
# conditions: 3 µM; 72 h

Some solved cases for reference:
Output presynaptic density (Z-score) of COC1CC2CCC(C)C(O)(O2)C(=O)C(=O)N2CCCCC2C(=O)OC(C(C)CC2CCC(OC(=O)C(C)(CO)CO)C(OC)C2)CC(=O)C(C)C=C(C)C(O)C(OC)C(=O)C(C)CC(C)C=CC=CC=C1C (stereo not drawn)
0.145

Output presynaptic density (Z-score) of C[C@@H](O[C@H]1OCCN(Cc2n[nH]c(=O)[nH]2)[C@H]1c1ccc(F)cc1)c1cc(C(F)(F)F)cc(C(F)(F)F)c1 [Aprepitant]
0.895

Continue with the next molecule.
Output presynaptic density (Z-score) of `Cc1[nH]c(/C=C2\C(=O)Nc3ccc(S(=O)(=O)Cc4c(Cl)cccc4Cl)cc32)c(C)c1C(=O)N1CCC[C@@H]1CN1CCCC1`
-4.53

---

# Test system: hN + hpA co-culture (H1 iNGN2 human neurons + human primary astrocytes)
# experiment: presynaptic density (SYNAPSIN1 puncta per MAP2 neurite area), Z-score vs DMSO controls; higher = more presynaptic puncta (synapse-promoting)
# conditions: 3 µM; 72 h
observation-type: presynaptic density (Z-score)

Some solved cases for reference:
Output presynaptic density (Z-score) of `Cc1nc2c(-c3cnc(N)nc3)nc(N3CCOCC3)nc2n1C(C)C`
1.07

Output presynaptic density (Z-score) of `O=C1NC(=O)/C(=C/c2ccc(-c3ccc(F)cc3O)o2)S1`
0.652

Output presynaptic density (Z-score) of CS(=O)(=O)N1CCN(Cc2cc3nc(-c4cccc5[nH]ncc45)nc(N4CCOCC4)c3s2)CC1 [GDC 0941 bismesylate]
1.26

Output presynaptic density (Z-score) of `CCCCc1nc(Cl)c(CO)n1Cc1ccc(-c2ccccc2-c2nnn[nH]2)cc1`
0.806

Output presynaptic density (Z-score) of CC(C)c1cc(-c2n[nH]c(=O)n2-c2ccc3c(ccn3C)c2)c(O)cc1O [Ganetespib (STA-9090)]
2.03

Others:
Output presynaptic density (Z-score) of CNC(=O)c1ccc(N2C(=S)N(c3ccc(C#N)c(C(F)(F)F)c3)C(=O)C2(C)C)cc1F [Enzalutamide (MDV3100)]
0.664

Output presynaptic density (Z-score) of `Nc1cccc(-c2cc3c(Oc4cccc(O)c4)ncnc3[nH]2)c1`
0.148

Output presynaptic density (Z-score) of COc1cc2/c(=N/c3ccc(Br)cc3F)nc[nH]c2cc1OCC1CCN(C)CC1 [Vandetanib (ZD 6474)]
0.993

---

# System: hN + hpA co-culture (H1 iNGN2 human neurons + human primary astrocytes)
# experiment: presynaptic density (SYNAPSIN1 puncta per MAP2 neurite area), Z-score vs DMSO controls; higher = more presynaptic puncta (synapse-promoting)
# conditions: 3 µM; 72 h
Where a name gives a salt, the structure may show the parent alone.
# presynaptic density (Z-score) annotations
The reply should be a number, written without any unit.

Some solved cases for reference:
Output presynaptic density (Z-score) of `O=C1[C@H](Cc2ccc(O)cc2)N2C(=O)CCN(C(=O)NCc3ccccc3)[C@H]2CN1Cc1cccc2ccccc12`
-0.969

Output presynaptic density (Z-score) of `CCN(c1cc(-c2ccc(CN3CCOCC3)cc2)cc(C(=O)NCc2c(C)cc(C)[nH]c2=O)c1C)C1CCOCC1`
-0.342

Output presynaptic density (Z-score) of COc1cccc2c1C(=O)c1c(O)c3c(c(O)c1C2=O)C[C@@](O)(C(C)=O)C[C@@H]3O[C@H]1C[C@H](N)[C@H](O)[C@H](C)O1 [Daunorubicin HCl]
0.0215

Continue with the next molecule.
Output presynaptic density (Z-score) of C[C@]12C=CC(=O)N[C@@H]1CC[C@@H]1[C@@H]2CC[C@]2(C)[C@@H](C(=O)Nc3cc(C(F)(F)F)ccc3C(F)(F)F)CC[C@@H]12 [Dutasteride]
-1.23

---

# Test system: hN + hpA co-culture (H1 iNGN2 human neurons + human primary astrocytes);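 note: immunostained co-cultures imaged by high-content microscopy, Z-score per plate against mean and SD of 0.1% DMSO wells, compounds added on differentiation day 18, analysed day 21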
# experiment: presynaptic density (SYNAPSIN1 puncta per MAP2 neurite area), Z-score vs DMSO controls; higher = more presynaptic puncta (synapse-promoting)
# conditions: 3 µM; 72 h
Structures can show the parent of a compound that is named as a salt.
Label 1 (yes) when presynaptic density (Z-score) >= 0.3; otherwise 0 (no).

Does presynaptic density (Z-score) meet or surpass 0.3 for `COc1cc2c(cc1OC)[C@@H]1Cc3ccc(OC)c(OC)c3CN1CC2` ?
0 (no)

Does presynaptic density (Z-score) meet or surpass 0.3 for `COc1cc2c(cc1O)CC[C@@H]1[C@@H]2CC[C@]2(C)[C@@H](O)CC[C@@H]12` ?
0 (no)

Others:
Does presynaptic density (Z-score) meet or surpass 0.3 for `FC(F)(F)c1ccc(/C=C/c2nc(COc3ccc(CCCCn4ccnn4)cc3)co2)cc1` ?
0 (no)

Does presynaptic density (Z-score) meet or surpass 0.3 for CCCCCCCCc1ccc(CCC(N)(CO)CO)cc1 [Fingolimod (FTY720) HCl] ?
1 (yes)

Does presynaptic density (Z-score) meet or surpass 0.3 for `Cc1cccc(-c2nn3c(c2-c2ccnc4ccc(C(N)=O)cc24)CCC3)n1` ?
1 (yes)

Does presynaptic density (Z-score) meet or surpass 0.3 for Cc1cc(C(C)(C)C)c(O)c(C)c1CC1=NCCN1 [Oxymetazoline HCl] ?
0 (no)

Hello, the source for this data is the supplement of paper PMC10121225, in case you need it.
